- system under test: T1, mTOR(FRB) and FKBP12 interaction (Homo sapiens, UniProt P42345+P62942)
- T1 construct: region having the 2025th to 2114th amino acids of the mTOR protein; expressed in transfected cells; host or cells: HeLaS3; 293T for some combinations with FKBP12-Tankyrase(SAM)
- T1 sequence (P42345 2025-2114): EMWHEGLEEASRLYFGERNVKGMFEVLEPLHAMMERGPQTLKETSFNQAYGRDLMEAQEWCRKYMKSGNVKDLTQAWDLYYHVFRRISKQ
- T1 sequence (P62942 whole entry): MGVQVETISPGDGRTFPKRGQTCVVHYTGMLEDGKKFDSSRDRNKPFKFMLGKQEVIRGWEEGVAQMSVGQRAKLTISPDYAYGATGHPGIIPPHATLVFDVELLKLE
- assay explanation: Degree of fluorescent focus (assembly) formation after rapamycin with TFG(PB1) (Example 9, Table 2)
- Assay type: cell-based
- Parameters: key: ++: fluorescent foci were observed in 50% or less of the HeLaS3 cells; +: fluorescent foci were observed in the 293T cells expressing a larger amount of proteins than that in the HeLaS3 cells
- condition context: fluorescent protein fused to mTOR(FRB), KO1 and dAG (AB) in 293T cells
measurement label: degree of fluorescent focus formation, TFG (PB1)

molecule | recorded measurement
dimeric Azami-Green (AB) (protein, Synthetic sequence dAG(AB)) MVSVIKPEMKIKLCMRGTVNGHNFVIEGEGKGNPYEGTQILDLNVTEGAPLPFAYDILTTVFQYGNRAFTKYPADIQDYFKQTFPEGYHWERSMTYEDQGICTATSNISMRGDCFFYDIRFDGVNFPPNGPVMQKKTLKWEPSTEKMYVRDGVLKGDVNMALLLEGGGHYRCDFKTTYKAKKDVRLPDAHKVDHRIEILKHDKDYNKVKLYENAVARYSMLPSQAK | +

These entries and their values trace back to patent US9766250B2.
